Experiment: ATG_ERE_CIS: Attagene CIS-FACTORIAL HepG2 Assay for Estrogen Response Element (ERE) (AID 2282940)
Settings: HepG2 ERE cis-reporter, Attagene RNA transcript; actives raise or lower the signal
Activity calls are given as the source filed them. How the source made its calls: active means hit-call score of the fitted dose curve at least 0.9, where 1 is the maximum; inactive means score below 0.9.
Labels: active, inactive

# molecule, assigned-label
measured = [
    ("O=C(O)CC(C(=O)O)S(=O)(=O)O (centres undefined)", "inactive"),
    ("CCOC(=O)C1=NN(c2ccc(Cl)cc2Cl)C(C)(C(=O)OCC)C1 (centres undefined)", "inactive"),
    ("CCCCCC(=O)OCC", "inactive"),
    ("Cn1cccc1", "inactive"),
    ("COC(=O)CC(C)CCC=C(C)C (centres undefined)", "inactive"),
    ("O=C(O)c1cc(O)c2ccccc2c1O", "active"),
    ("CCOc1ccc(NC(N)=O)cc1", "inactive"),
    ("C=CC(=O)NC(C)(C)C", "inactive"),
    ("O=C(O)/C=C/c1ccccc1", "active"),
    ("CC1=C(O)C(=O)C(C)O1 (centres undefined)", "inactive"),
    ("CC(=O)OCCc1ccccc1", "inactive"),
    ("O=C(O)C1CCC(C(=O)O)CC1 (centres undefined)", "inactive"),
    ("CCNc1nc(NC(C)(C)C)nc(OC)n1", "inactive"),
    ("C=C(C)[C@@H]1CC=C(C)CC1", "inactive"),
    ("CC(C)(C)NC(=O)[C@H]1CC[C@H]2[C@@H]3CC[C@H]4NC(=O)C=C[C@]4(C)[C@H]3CC[C@]12C", "inactive"),
    ("CCCCOCCOCCOC(C)=O", "inactive"),
    ("NNS(=O)(=O)c1ccc(Oc2ccc(S(=O)(=O)NN)cc2)cc1", "inactive"),
    ("Nc1ccc(C(=O)O)cc1", "inactive"),
    ("CCCCCCCCCCCCCCCCCCOS(=O)(=O)O", "active"),
    ("O=C(Oc1ccccc1)c1ccccc1O", "inactive"),
    ("C=CC(=O)OCCCCCCCC(C)C", "active"),
    ("CC1CCC(C(C)(C)S)C(=O)C1 (centres undefined)", "inactive"),
    ("CCCCCCOc1ccc(N)cc1", "inactive"),
    ("CC1=CCC(C(C)C)C=C1 (centres undefined)", "inactive"),
    ("CC1=CCC2CC1C2(C)C (centres undefined)", "inactive"),
    ("Nc1ccc(O)c([N+](=O)[O-])c1", "inactive"),
    ("C=C(C)C(=O)OCC(O)COc1ccc(C(C)(C)c2ccc(OCC(O)COC(=O)C(=C)C)cc2)cc1 (centres undefined)", "inactive"),
    ("O=C1c2ccccc2C(=O)c2cc(S(=O)(=O)O)ccc21", "inactive"),
    ("O=C(O)CCCC(=O)O", "inactive"),
    ("CCc1cccc(C)c1N(C(=O)CS(=O)(=O)O)C(C)COC (centres undefined)", "active"),
    ("CC1CCC(=O)C1=O (centres undefined)", "inactive"),
    ("CC=C(C)C=CC=C(C)C", "inactive"),
    ("N#CC1(N)CCCCC1", "inactive"),
    ("C=Cc1cccc(C)c1", "inactive"),
    ("Cc1cccc(C(C)(C)C)c1O", "inactive"),
    ("CCCCC1C(=O)N(c2ccccc2)N(c2ccccc2)C1=O", "inactive"),
    ("CC(C)(O)Cc1ccccc1", "inactive"),
    ("Cc1cc(=O)[nH]c(=O)[nH]1", "inactive"),
    ("CCCCCCCCCCCCC", "inactive"),
    ("[Cl][Eu]([Cl])[Cl]", "active"),
    ("CO[Si](CCCS)(OC)OC", "active"),
    ("CCCCCCCCCC[N+](C)(CCCCCCCCCC)CCC[Si](OC)(OC)OC", "inactive"),
    ("NC(=O)Nc1ccccc1", "inactive"),
    ("CC(C)=CCl", "inactive"),
    ("CC(C)C(=O)OCCc1ccccc1", "inactive"),
    ("COC(=O)C=Cc1ccccc1", "inactive"),
    ("C[Si]1(C)O[Si](C)(C)O[Si](C)(C)O[Si](C)(C)O[Si](C)(C)O1", "inactive"),
    ("CC(=O)C(C)C", "inactive"),
    ("CCC[Si](OC)(OC)OC", "inactive"),
    ("CC(=O)OC/C=C(/C)CCC=C(C)C", "inactive"),
    ("CC1OC(=O)C(C)OC1=O (centres undefined)", "inactive"),
    ("CC(C)=NNC(N)=S", "inactive"),
    ("CCOC(=O)OC(=O)OCC", "inactive"),
    ("Cc1c[nH]c(=O)[nH]c1=O", "inactive"),
]

The values you see were collected from PubChem BioAssay (EPA / NIEHS).
